So I've got a bunch of compounds here, and I need their growth values.
# Test system: T-47D breast
# ASSAY_PROTOCOL: NCI-60 one-dose screen, 48 h (100 = growth as untreated, 0 = no growth, -100 = all killed)
# ASSAY_SETUP: 10 µM
# Description: Growth inhibition of the T-47D human tumor cell line is measured as a screen for anti-cancer activity. Cells are grown in 96 well plates and exposed to the test compound for 48 hours. Compounds are tested at a single concentration, which is 10^-5 M for most compounds. The reported endpoint is percent growth (GI% or GIPRCNT), where numbers from 0 - 100% represent growth inhibition, and numbers from -100% - 0 represent cell death. For example, a value of 40 represents 60% growth inhibition. […]
Compounds without any hit were thinned out: in the full panel of roughly 83,000, 20% have a hit.
One number for each entry, in %.

Solved cases (2 shown):
# COMPOUND, MEASURE_UNIT, READOUT_NUMBER
rows = [
    ("O=[N+]([O-])c1ccc(-c2nc(Cl)c3c(n2)CCCC3)o1", "%", 89.9),
    ("C=CCOc1ccc2c(c1)CC=C1[C@@H]2CC[C@]2(C)C(=O)/C(=N/O)C[C@@H]12", "%", 87.8),
]

Respectfully, I request growth for each entry included below.
1. CCCCCc1cc[n+](CC(=O)c2ccc(Cl)cc2)cc1
2. CCCCCC(CCC)COC(=O)c1ccc(OC)cc1 (centres undefined)

1. 90.6
2. 87.7

###

# Test system: CAKI-1 renal
# ASSAY_PROTOCOL: NCI-60 one-dose screen, 48 h
# ASSAY_SETUP: 10 µM
This is part of a sample that, as a whole, favours compounds with a hit. Of some 83,000 tested, about 20% had one in any assay. Calls of active or inactive are those of the source. How the source made its calls: active means growth percent below 10; inactive means the rest.
Your reply should match one of these outcome classes. active, inactive

The examples below pair each entry with its known result.
# COMPOUND, ASSAY_SYSTEM, ASSIGNED_CLASS
measured = [
    ("CC(=O)c1c(O)cc2c3c1OC(C)(C)C1CCC(C)(CC31)O2 (centres undefined)", "CAKI-1 renal", "inactive"),
    ("CC(=O)O[C@H]1CC[C@@]2(C)[C@@H](CC[C@@H]3[C@@H]2CC[C@]2(C)C=C(C=O)C[C@@H]32)C1", "CAKI-1 renal", "inactive"),
    ("CC(C)C[C@H](NC(=O)Cn1ccc(Nc2ccccc2)cc1=O)B(O)O", "CAKI-1 renal", "inactive"),
]

Given Cc1ccc2nc(-c3ccc(OCC(=O)N=Nc4c(O)[nH]c5ccccc45)cc3)[nH]c2c1 , state the outcome it received in this test.
inactive

Given COc1cc(Cn2c(-c3ccccc3)c(Cl)c3c2-c2oncc2CC3)cc(OC)c1 , state the outcome it received in this test.
inactive

Given CCc1ccc(-c2nnc(COc3ccc(-c4nc5ccc(C)cc5[nH]4)cc3OC)o2)cc1 , state the outcome it received in this test.
inactive

Given CC(=O)Oc1ccc(C2=Cc3ccc(OC(C)=O)cc3OC2C)cc1 (centres undefined) , state the outcome it received in this test.
inactive

Given Nc1c(C(=O)NC2CCCCC2)sc2nc3c(cc12)C(=O)CCC3 , state the outcome it received in this test.
inactive

Given Oc1ccc(Cn2cc3c(c2-c2ccccc2)CCc2cnoc2-3)cc1 , state the outcome it received in this test.
inactive

Given CN(C)Cc1cccs1 , state the outcome it received in this test.
inactive

Given C=CCN1C(=O)/C(=C\c2ccc3c(c2)CCC3)SC1=S , state the outcome it received in this test.
inactive

###

# Test system: ACHN renal
# ASSAY_PROTOCOL: NCI-60 one-dose screen, 48 h (100 = growth as untreated, 0 = no growth, -100 = all killed)
# ASSAY_SETUP: 10 µM
The panel holds about 83,000 compounds, 20% with a hit somewhere; the sample as a whole holds those more often.
growth under 60% gets Criterion met, anything at or over 60% gets Criterion not met.

The examples below pair each entry with its known result.
# COMPOUND, ASSIGNED_CLASS
records = [
    ("FC(F)(F)c1ccc(-c2cnc(Cl)nc2NC2CCCCCC2)cc1", "Criterion met"),
    ("COC(=O)[C@]12CC[C@@H](C)[C@H](C)[C@@H]1C1=CC[C@@H]3[C@@]4(C)C/C(=N\\O)[C@H](O)[C@@]5(C)COC(=C45)C[C@@]3(C)[C@]1(C)CC2", "Criterion met"),
    ("CC1(C)CC(OCCCC[P+](c2ccccc2)(c2ccccc2)c2ccccc2)CC(C)(C)N1O", "Criterion met"),
    ("COc1ccc(C2C=C(c3ccc(Cl)c(Cl)c3)N=C3SC(C)=CN32)cc1 (stereo not drawn)", "Criterion not met"),
    ("COC(=O)[C@]12CC[C@@H](C)[C@H](C)[C@@H]1C1=CC[C@@H]3[C@@]4(C)CC(=O)[C@H](O)[C@@](C)(CO)[C@@H]4C(=O)C[C@@]3(C)[C@]1(C)CC2", "Criterion met"),
    ("FC(F)(F)c1ccc(-c2nc(-c3nc4cc(Cl)c(Cl)cc4[nH]3)c3ccccn23)cc1", "Criterion not met"),
    ("COc1cc(C2CC(=O)Nc3c2c(C)nn3-c2nc3ccccc3[nH]2)cc(OC)c1O (stereo not drawn)", "Criterion met"),
    ("O=C(O)CCCN1C(=O)NC2(C1=O)c1ccccc1-c1ccccc12", "Criterion not met"),
]

Could you please tell me whether growth recorded for NC(=O)C1CCCN(Cc2c[nH]c3ccccc23)C1 (stereo not drawn) is less than 60%?
Criterion not met

Could you please tell me whether growth recorded for CCCCCCCCCCCCCCCCCBr is less than 60%?
Criterion not met

Could you please tell me whether growth recorded for Cc1nc(N)sc1Sc1nc2ccc(Cl)cc2c(=O)n1-c1ccc(Oc2ccccc2)cc1 is less than 60%?
Criterion not met

###

# Test system: SW-620 colon
# ASSAY_PROTOCOL: NCI-60 one-dose screen, 48 h (100 = growth as untreated, 0 = no growth, -100 = all killed)
# ASSAY_SETUP: 10 µM
Compounds without any hit were thinned out: in the full panel of roughly 83,000, 20% have a hit.
So I've got a bunch of compounds here, and I need their growth values.
Give bare numbers, in %.

# COMPOUND, READOUT_NUMBER
data = [
    ("O=C(Nc1ccc(Oc2ccc(Nc3nc4ccccc4s3)cc2)cc1)Nc1ccc(Cl)c(Cl)c1", 33.6),
    ("CC(=O)Nc1nc(C)c(C(=O)NNC=O)s1", 101),
]

Respectfully, I request growth for each entry included below.
1. CCN(CC)CCn1c(=N)n(CC(O)c2ccc(Cl)c(Cl)c2)c2ccccc21 (stereo not drawn)
2. COc1ccc(-n2nnc3c(sc4ccccc43)c2=O)cc1
3. O=C(O)c1ccccc1C(=O)c1cccc2c(F)cccc12
4. CCCCOCC(=O)NC(NP(=O)(N(C)C)N(C)C)C(Cl)(Cl)Cl (stereo not drawn)

93.5
83.9
106
108

Respectfully, I request growth for each entry included below.
1. O=C1c2cc(Cl)ccc2-c2c(O)cc(Cl)cc21
2. COc1ccc2nc(NC(=O)Nc3c(F)cccc3F)sc2c1

1: 82.7; 2: 105

###

# Test system: DU-145 prostate
# ASSAY_PROTOCOL: NCI-60 one-dose screen, 48 h (100 = growth as untreated, 0 = no growth, -100 = all killed)
# ASSAY_SETUP: 10 µM
About 83,000 compounds went through this panel and 20% of them were active in at least one assay; those are over-represented in the sample as a whole.
OUTCOME_MEASURE: growth (%)
Give bare numbers, in %.

# MOLECULE, MEASURE_UNIT, growth
data = [
    ("COc1ccccc1S(=O)(=O)Nc1ccc2c(c1)CN(C)C(=O)N2", "%", 77.8),
    ("COc1ccc(C2C=C(c3ccc(Cl)cc3)N=C3SC=CN32)c(Br)c1 (configuration not stated)", "%", 97),
    ("CCn1nc(-c2ccc(C(=O)OC)cc2)nc2c(=O)n(C)c(=O)nc1-2", "%", 77.6),
    ("CC1(C)CC(OCCCC[P+](c2ccccc2)(c2ccccc2)c2ccccc2)CC(C)(C)N1O", "%", 5.39),
]

Respectfully, I request growth for each entry included below.
1. CCN(CC)c1ccc(/C=C/C2=[N+](C)c3ccccc3C2(C)C)c(C)c1
2. C/C=C\COc1cc(C)c(Cl)cc1Cl
3. O=C(Nc1ccc(Oc2ccc(Nc3nc4ccccc4s3)cc2)cc1)Nc1ccc(Cl)c(Cl)c1
4. Cc1nc2sccn2c1-c1csc(Nc2cccc(Cl)c2C)n1
5. COc1ccc(-c2[nH]ncc2-c2cc(OC)c(OC)c(OC)c2)cc1
6. COc1c(-c2c3sc(=O)[nH]c3nc3c2c(=O)[nH]n3C(C)C)cc2c(c1OC)OCO2
7. CNCCCNCCCN1C(=O)c2ccc3c4c(ccc(c24)C1=O)C(=O)N(CCCNCc1ccccc1OC)C3=O
8. O=C(Nc1cccc(F)c1)Nc1cccc(Cl)c1

[20.3, 111, 39.1, 78.7, -23.9, 108, -91.5, 65.8]
